Data credit: the supplement of paper PMC13392028

Each entry below lists one item and its recorded RBNS R-value value.
- System: PvIESI-1 RRM domain (Plasmodium vivax PVP01_0939900 aa 896-1203, GST fusion)
- Experiment notes: RBNS R-value (6-mer enrichment in protein-bound RNA vs input library) (ratio); higher = stronger binding preference; the methods of the paper give 50 / 100 / 500 nM protein instead
- Condition context: protein concentration: 1000 nM

Residue sequence | Assayed system | RBNS R-value
GGUGAU | PvIESI-1 RRM domain (Plasmodium vivax PVP01_0939900 aa 896-1203, GST fusion) | 2.15
ACUGAU | PvIESI-1 RRM domain (Plasmodium vivax PVP01_0939900 aa 896-1203, GST fusion) | 3.11
CUGAUG | PvIESI-1 RRM domain (Plasmodium vivax PVP01_0939900 aa 896-1203, GST fusion) | 4.04
UCUGAU | PvIESI-1 RRM domain (Plasmodium vivax PVP01_0939900 aa 896-1203, GST fusion) | 3.02
GCGAUG | PvIESI-1 RRM domain (Plasmodium vivax PVP01_0939900 aa 896-1203, GST fusion) | 2.01
GAUGAG | PvIESI-1 RRM domain (Plasmodium vivax PVP01_0939900 aa 896-1203, GST fusion) | 2.4
GAUGAC | PvIESI-1 RRM domain (Plasmodium vivax PVP01_0939900 aa 896-1203, GST fusion) | 2.51
UUGAUG | PvIESI-1 RRM domain (Plasmodium vivax PVP01_0939900 aa 896-1203, GST fusion) | 4.68
GACACC | PvIESI-1 RRM domain (Plasmodium vivax PVP01_0939900 aa 896-1203, GST fusion) | 1.69
GAUGGG | PvIESI-1 RRM domain (Plasmodium vivax PVP01_0939900 aa 896-1203, GST fusion) | 2.01
UAUGAU | PvIESI-1 RRM domain (Plasmodium vivax PVP01_0939900 aa 896-1203, GST fusion) | 3.27
GAUUGC | PvIESI-1 RRM domain (Plasmodium vivax PVP01_0939900 aa 896-1203, GST fusion) | 2.1
AUGAUG | PvIESI-1 RRM domain (Plasmodium vivax PVP01_0939900 aa 896-1203, GST fusion) | 5.02
GAUGAA | PvIESI-1 RRM domain (Plasmodium vivax PVP01_0939900 aa 896-1203, GST fusion) | 2.83
GUGAUU | PvIESI-1 RRM domain (Plasmodium vivax PVP01_0939900 aa 896-1203, GST fusion) | 3.1
GAUUUC | PvIESI-1 RRM domain (Plasmodium vivax PVP01_0939900 aa 896-1203, GST fusion) | 2.38
UGAUUC | PvIESI-1 RRM domain (Plasmodium vivax PVP01_0939900 aa 896-1203, GST fusion) | 3.89
CCUUGA | PvIESI-1 RRM domain (Plasmodium vivax PVP01_0939900 aa 896-1203, GST fusion) | 1.91
AUGAUA | PvIESI-1 RRM domain (Plasmodium vivax PVP01_0939900 aa 896-1203, GST fusion) | 3.64
AUUGAU | PvIESI-1 RRM domain (Plasmodium vivax PVP01_0939900 aa 896-1203, GST fusion) | 3.67
UUGAUA | PvIESI-1 RRM domain (Plasmodium vivax PVP01_0939900 aa 896-1203, GST fusion) | 3.32
UGAUGA | PvIESI-1 RRM domain (Plasmodium vivax PVP01_0939900 aa 896-1203, GST fusion) | 5.25
GUGAUG | PvIESI-1 RRM domain (Plasmodium vivax PVP01_0939900 aa 896-1203, GST fusion) | 3.34
CACCCG | PvIESI-1 RRM domain (Plasmodium vivax PVP01_0939900 aa 896-1203, GST fusion) | 1.77
UGAUUA | PvIESI-1 RRM domain (Plasmodium vivax PVP01_0939900 aa 896-1203, GST fusion) | 4.11
UGAUCU | PvIESI-1 RRM domain (Plasmodium vivax PVP01_0939900 aa 896-1203, GST fusion) | 2.14
AAUGAU | PvIESI-1 RRM domain (Plasmodium vivax PVP01_0939900 aa 896-1203, GST fusion) | 3.94
GAUUGA | PvIESI-1 RRM domain (Plasmodium vivax PVP01_0939900 aa 896-1203, GST fusion) | 2.29
CAUGAU | PvIESI-1 RRM domain (Plasmodium vivax PVP01_0939900 aa 896-1203, GST fusion) | 3.8
GAUGCC | PvIESI-1 RRM domain (Plasmodium vivax PVP01_0939900 aa 896-1203, GST fusion) | 2.06
UGAUAU | PvIESI-1 RRM domain (Plasmodium vivax PVP01_0939900 aa 896-1203, GST fusion) | 2.9
UGAUGU | PvIESI-1 RRM domain (Plasmodium vivax PVP01_0939900 aa 896-1203, GST fusion) | 4.13
UGAUAA | PvIESI-1 RRM domain (Plasmodium vivax PVP01_0939900 aa 896-1203, GST fusion) | 3.43
UUGAUU | PvIESI-1 RRM domain (Plasmodium vivax PVP01_0939900 aa 896-1203, GST fusion) | 4.43
GUUGAU | PvIESI-1 RRM domain (Plasmodium vivax PVP01_0939900 aa 896-1203, GST fusion) | 2.73
UGAUUG | PvIESI-1 RRM domain (Plasmodium vivax PVP01_0939900 aa 896-1203, GST fusion) | 3.39
UGAUAG | PvIESI-1 RRM domain (Plasmodium vivax PVP01_0939900 aa 896-1203, GST fusion) | 3.29
